# System tested: HLA-A*02:16
# Experiment description: IEDB peptide-MHC binding, purified MHC/direct/fluorescence; filed as Kd, often an IC50 or EC50 that approximates it; bounds were set here for any values at or beyond the usual limits of such assays
# Measurement context: source organism: Brucella suis 1330
Measure name: Kd

[ask] Fill in the recorded Kd for this sequence, with HLA-A*02:16 as test system: `MRDGGSATV`
[reply] ≥ 10 µM

###

# System tested: HLA-A*29:02
# Experiment description: IEDB peptide-MHC binding, purified MHC/competitive/radioactivity; filed as Kd, often an IC50 or EC50 that approximates it; bounds were set here for any values at or beyond the usual limits of such assays
# Measurement context: source organism: Mammarenavirus guanaritoense
Measure name: pKd
The value called pKd is obtained by taking minus log10 of the concentration in mol/L.

See these solved cases before continuing.
Sequence text	System tested	Value reported
INYCLDFLF	HLA-A*29:02	6.90
TTDFTRLRY	HLA-A*29:02	7.23

Next:
[ask] What measured pKd goes with `SWDNTSVDLY` ?
[reply] 6.07

###

# System tested: HLA-A*11:01
# Experiment description: IEDB peptide-MHC binding, purified MHC/direct/fluorescence; filed as Kd, often an IC50 or EC50 that approximates it; bounds were set here for any values at or beyond the usual limits of such assays
# Measurement context: source organism: Aggregatibacter actinomycetemcomitans
Measure name: Kd (nM)
Your answer is read as nM, so omit the unit and give the number.

[ask] What measured Kd goes with `TTRAWFDKK` ?
[reply] 127

###

# System tested: HLA-A*32:01
# Experiment description: IEDB peptide-MHC binding, purified MHC/competitive/radioactivity; filed as Kd, often an IC50 or EC50 that approximates it; bounds were set here for any values at or beyond the usual limits of such assays
# Measurement context: source organism: Lymphocytic choriomeningitis virus (strain WE)
Measure name: pKd
The value called pKd is obtained by taking minus log10 of the concentration in mol/L.

[ask] Fill in the recorded pKd for this sequence, with HLA-A*32:01 as test system: `LTDNDDILM`
[reply] 4.90

###

# System tested: HLA-B*35:01
# Experiment description: IEDB peptide-MHC binding, purified MHC/direct/fluorescence; filed as Kd, often an IC50 or EC50 that approximates it; bounds were set here for any values at or beyond the usual limits of such assays
# Measurement context: source organism: Giardia lamblia ATCC 50803
Measure name: Kd (nM)
Your answer is read as nM, so omit the unit and give the number.

[ask] What measured Kd goes with `QTSTLYDFY` ?
[reply] 28.6

###

# System tested: HLA-A*30:02
# Experiment description: IEDB peptide-MHC binding, purified MHC/competitive/radioactivity; filed as Kd, often an IC50 or EC50 that approximates it; bounds were set here for any values at or beyond the usual limits of such assays
# Measurement context: source organism: Mammarenavirus juninense
Measure name: pKd
The value called pKd is obtained by taking minus log10 of the concentration in mol/L.

[ask] What measured pKd goes with `GVLEEQGSFY` ?
[reply] 6.61

###

# System tested: HLA-A*11:01
# Experiment description: IEDB peptide-MHC binding, purified MHC/competitive/fluorescence; filed as Kd, often an IC50 or EC50 that approximates it; bounds were set here for any values at or beyond the usual limits of such assays
# Measurement context: source organism: Human immunodeficiency virus 1
Measure name: Kd (nM)
Your answer is read as nM, so omit the unit and give the number.

[ask] What measured Kd goes with `TLYCVHQR` ?
[reply] 111
